tgt: UniProtKB Q07817
experimental-protocol: TR-FRET competitive binding assay, BCLXL WT
measurement-conditions: ratio Ki BCLxL / Ki BCL2 WT
Please go through the items and note down their TR_FRET EKI BCLxL/WT selectivty ratio.
One number for each entry.

[[record]]
substance_smiles = "Cc1c(N(C(=O)c2cc(-c3cc4c(cc3C(=O)N3Cc5ccccc5C[C@H]3C)CN(C(=O)Cc3ccccc3)CC4)n(C)c2C)c2ccc(O)cc2F)cc(C#N)n1C"
measured_parameter = "TR_FRET EKI BCLxL/WT selectivty ratio"
readout_value = 4.6


Here are 2 compounds. What values of TR_FRET EKI BCLxL/WT selectivty ratio were reported for them?
1. Cc1c(N(C(=O)c2cc(-c3cc4c(cc3C(=O)N3Cc5ccccc5C[C@H]3C)CN(C(=O)Cc3ccc(OCCN5CCSCC5)cc3)CC4)n(C)c2C)c2ccc(O)cc2)cc(C#N)n1C
2. Cc1ccc(N(C(=O)c2cc(-c3cc4c(cc3C(=O)N3Cc5ccccc5C[C@H]3C)CN(C(=O)Cc3ccc(OCCN5CCOCC5)cc3F)CC4)n(C)c2C)c2ccccc2)cc1C#N

1: 26.5; 2: 404.3

* * *

tgt: BCLXL WT (Homo sapiens (Human))
Sequence (Q07817 other isoform, or with tags, fused parts or gaps): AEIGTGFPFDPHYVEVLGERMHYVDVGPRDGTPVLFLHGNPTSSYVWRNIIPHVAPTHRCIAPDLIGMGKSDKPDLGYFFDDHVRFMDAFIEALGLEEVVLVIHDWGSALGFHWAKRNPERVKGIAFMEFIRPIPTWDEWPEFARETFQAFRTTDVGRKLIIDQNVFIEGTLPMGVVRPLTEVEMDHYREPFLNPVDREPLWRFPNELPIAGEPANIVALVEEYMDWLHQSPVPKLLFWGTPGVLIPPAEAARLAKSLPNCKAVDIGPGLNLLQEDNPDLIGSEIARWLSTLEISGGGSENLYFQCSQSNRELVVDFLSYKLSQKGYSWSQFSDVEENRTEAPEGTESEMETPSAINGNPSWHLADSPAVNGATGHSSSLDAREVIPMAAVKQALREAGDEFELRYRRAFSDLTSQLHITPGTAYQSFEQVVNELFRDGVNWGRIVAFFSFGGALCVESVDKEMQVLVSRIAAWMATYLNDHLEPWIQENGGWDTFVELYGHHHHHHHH
Please go through the items and note down their pKi.
Numbers only, as −log10 of the molar value.

Please review the entries below; each comes with its answer.
[[record]]
substance_smiles = "Cc1c(N(C(=O)c2cc(-c3cc4c(cc3C(=O)N3Cc5ccccc5C[C@H]3C)CN(C(=O)Cc3ccc(OCCN5CCOCC5)cc3)CC4)n(C)c2C)c2ccc(O)cc2)cc(C#N)n1C"
readout_value = 8.96

[[record]]
substance_smiles = "Cc1c(N(C(=O)c2cc(-c3cc4c(cc3C(=O)N3Cc5ccccc5C[C@H]3C)CN(C(=O)Cc3ccc(OCCN5CC(F)C5)cc3)CC4)n(C)c2C)c2ccc(O)cc2)cc(C#N)n1C"
readout_value = 8.89


So what's the measured pKi for this one? Cc1c(N(C(=O)c2cc(-c3cc4c(cc3C(=O)N3Cc5ccccc5C[C@H]3C)CN(C(=O)Cc3ccc(OCCN5CCC(F)CC5)cc3)CC4)n(C)c2C)c2ccc(O)cc2)cc(C#N)n1C
8.92

* * *

tgt: BCL2 D103Y (Homo sapiens, UniProt P10415, D103Y)
experimental-protocol: TR-FRET competitive binding assay, BCL2 D103Y
measurement-conditions: Ki determined from IC50, read-out: TR_FRET EKI_Bcl2 D103Y
Please go through the items and note down their pKi.
Answers are plain numbers, as −log10 of the molar value.

[[record]]
compound = "Cc1c(N(C(=O)c2cc(-c3cc4c(cc3C(=O)N3Cc5ccccc5C[C@H]3CN3CCCCC3)CN(C(=O)Cc3ccc(OCCN5CCN(CC(F)F)CC5)cc3)CC4)n(C)c2C)c2ccc(O)cc2)cc(C#N)n1C [Example 112]"
readout_value = 10.00

[[record]]
compound = "Cc1c(N(C(=O)c2cc(-c3cc4c(cc3C(=O)N3Cc5ccccc5C[C@H]3CN3CCCC[C@@H]3C)CN(C(=O)Cc3ccc(OCCN5CCOCC5)cc3F)CC4)n(C)c2C)c2ccc(O)cc2)cc(C#N)n1C [Example 125]"
readout_value = 9.72


Here are 2 compounds. What values of pKi were reported for them?
1. Cc1c(N(C(=O)c2cc(-c3cc4c(cc3C(=O)N3Cc5ccccc5C[C@H]3C)CN(C(=O)Cc3ccc(OCCN(C)C5COC5)cc3)CC4)n(C)c2C)c2ccc(O)cc2)cc(C#N)n1C [Example 60]
2. COc1ncc(N(C(=O)c2cc(-c3cc4c(cc3C(=O)N3Cc5ccccc5C[C@H]3C)CN(C(=O)Cc3ccc(OCCN5CCOCC5)cc3F)CC4)n(C)c2C)c2ccccc2)cc1C#N [Example 202]

9.85
9.96
